Biological target: human thrombin (Homo sapiens)
Construct: solution of human thrombin (a product of SIGMA Co.); purchased SIGMA Co
Assay: Determination of thrombin-inhibiting activity (chromogenic substrate S-2238, initial rate)
Format: biochemical
Conditions: negative logarithm of concentration inhibiting 50% of initial rate; tris hydrochloride buffer pH 8.4, room temperature
# maps each entry to its Thrombin-inhibiting activity (pIC50)

Guide cases for Thrombin-inhibiting activity (pIC50), answers given:
> print(dat)
                               entry.smiles              system.under.test  reported.value
1  CCOC(=O)c1ccc2c(c1)N(Cc1ccc(C3=NCCN3C)cc1)C(=O)CN(C(=O)c1ccc(Cl)cc1)C2.O=C(O)C(F)(F)F  human thrombin (Homo sapiens)            <4.0
2  CC(=N)N1CCC(Oc2ccc(CN3C(=O)CN(C(=O)c4ccc(Cl)cc4)Cc4c(Cl)cccc43)cc2)CC1.O=C(O)C(F)(F)F  human thrombin (Homo sapiens)            <4.0
3  CC(=N)N1CCC(Oc2ccc(CN3C(=O)CN(C(=O)c4ccc(Cl)cc4)Cc4ccc(C(=O)O)cc43)cc2)CC1.O=C(O)C(F)(F)F  human thrombin (Homo sapiens)            <4.0
4  CN1CC[N+](C)=C1N1CCC(CCN2C(=O)CN(C(=O)c3ccc(Cl)cc3)Cc3ccccc32)CC1.O=C([O-])C(F)(F)F  human thrombin (Homo sapiens)            <4.0

Q: Provide one value: measured Thrombin-inhibiting activity (pIC50) of `CN1CCN=C1c1ccc(CN2C(=O)CN(C(=O)c3ccc(Cl)cc3)Cc3ccc(C(=O)O)cc32)cc1.O=C(O)C(F)(F)F`
Result: <4.0

Cited source: patent US6825191B2
